Cited source: ChEMBL document CHEMBL3872252

Reported selectivity ratio is given for each of the following molecules.
# method: Selectivity index, ratio of GI50 for human HCT116 cells to MIC90 for Mycobacterium tuberculosis H37Ra ATCC 25177 active stage
# Type: toxicity, cell-based, HCT-116
# experimental-parameters: read-out: Selectivity Index
Number only, please.

// solved cases for selectivity ratio follow
1. C/C(=N\NC(N)=S)c1sc(C)nc1C; 1
2. C/C(=N\Nc1nc(-c2ccc(F)cc2)cs1)c1sc(C)nc1C; 4

Kindly review the next molecule as well.
Return selectivity ratio for the following molecule: COc1ccc(-c2csc(N/N=C(\C)c3sc(C)nc3C)n2)cc1
1

----------
# method: Antitubercular activity against Mycobacterium bovis BCG ATCC 35743 dormant stage measured on day 12 by nitrate reductase based two-fold dilution assay
# Format: functional, Mycobacterium bovis BCG str. ATCC 35743
# experimental-parameters: Mycobacterium tuberculosis variant bovis BCG, ATCC 35743, 288 h
// boundary case: MIC90 equal to 20 µg/mL maps to not fulfilled; strictly smaller maps to fulfilled

Solved cases (2 shown):
1. CO[C@H]1/C=C/O[C@@]2(C)Oc3c(C)c(O)c4c(O)c(c(/C=N/N5CCN(C)CC5)c(O)c4c3C2=O)NC(=O)/C(C)=C\C=C\[C@H](C)[C@H](O)[C@@H](C)[C@@H](O)[C@@H](C)[C@H](OC(C)=O)[C@@H]1C; fulfilled
2. C/C(=N\Nc1nc(-c2ccc(C)cc2)cs1)c1sc(-c2ccccc2)nc1C; not fulfilled

Record C/C(=N\Nc1nc(-c2ccc(Cl)cc2)cs1)c1sc(C)nc1C : is its MIC90 strictly below 20 µg/mL?
fulfilled

Record C/C(=N\NC(N)=S)c1sc(C)nc1C : is its MIC90 strictly below 20 µg/mL?
not fulfilled

Record COc1ccc(-c2csc(N/N=C(\C)c3sc(-c4ccccc4)nc3C)n2)cc1 : is its MIC90 strictly below 20 µg/mL?
fulfilled

Record C/C(=N\Nc1nc(-c2ccc(Br)cc2)cs1)c1sc(C)nc1C : is its MIC90 strictly below 20 µg/mL?
fulfilled

Record C/C(=N\Nc1nc(-c2ccc(Br)cc2)cs1)c1sc(-c2ccccc2)nc1C : is its MIC90 strictly below 20 µg/mL?
not fulfilled

----------
# method: Selectivity index, ratio of GI50 for human HCT116 cells to MIC90 for Mycobacterium bovis BCG ATCC 35743 dormant stage
# Format: toxicity, cell-based, HCT-116
# experimental-parameters: read-out: Selectivity Index
Use 6 as the dividing line for selectivity ratio, with the line itself on the Fulfilled side and lower values as Not fulfilled.

1) C/C(=N\Nc1nc(-c2ccccc2)cs1)c1sc(C)nc1C; Fulfilled
2) C/C(=N\Nc1nc(-c2ccc(Br)cc2)cs1)c1sc(C)nc1C; Fulfilled
3) C/C(=N\Nc1nc(-c2ccc(Br)cc2)cs1)c1sc(-c2ccccc2)nc1C; Not fulfilled
4) COc1ccc(-c2csc(N/N=C(\C)c3sc(C)nc3C)n2)cc1; Fulfilled

In plain terms: is recorded selectivity ratio at least 6 for C/C(=N\Nc1nc(-c2ccc(C)cc2)cs1)c1sc(C)nc1C ?
Fulfilled

In plain terms: is recorded selectivity ratio at least 6 for C/C(=N\Nc1nc(-c2ccc(F)cc2)cs1)c1sc(C)nc1C ?
Fulfilled

In plain terms: is recorded selectivity ratio at least 6 for C/C(=N\NC(N)=S)c1sc(C)nc1C ?
Not fulfilled

In plain terms: is recorded selectivity ratio at least 6 for C/C(=N\Nc1nc(-c2ccc(C)cc2)cs1)c1sc(-c2ccccc2)nc1C ?
Not fulfilled

In plain terms: is recorded selectivity ratio at least 6 for C/C(=N\Nc1nc(-c2ccc(F)cc2)cs1)c1sc(-c2ccccc2)nc1C ?
Not fulfilled

In plain terms: is recorded selectivity ratio at least 6 for COc1ccc(-c2csc(N/N=C(\C)c3sc(-c4ccccc4)nc3C)n2)cc1 ?
Fulfilled

----------
Reported selectivity ratio is given for each of the following compounds.
# method: Selectivity index, ratio of GI50 for human HCT116 cells to MIC90 for Mycobacterium bovis BCG ATCC 35743 active stage
# Assay type: toxicity, cell-based, HCT-116
# experimental-parameters: read-out: Selectivity Index

// solved cases for selectivity ratio follow
1. C/C(=N\Nc1nc(-c2ccccc2)cs1)c1sc(C)nc1C; 2
2. C/C(=N\Nc1nc(-c2ccc(Cl)cc2)cs1)c1sc(C)nc1C; 6
3. C/C(=N\Nc1nc(-c2ccc(Br)cc2)cs1)c1sc(-c2ccccc2)nc1C; 1
4. C/C(=N\Nc1nc(-c2ccc(F)cc2)cs1)c1sc(C)nc1C; 11
5. C/C(=N\Nc1nc(-c2ccc(Br)cc2)cs1)c1sc(C)nc1C; 9

Kindly review the next compound as well.
Return selectivity ratio for the following compound: COc1ccc(-c2csc(N/N=C(\C)c3sc(-c4ccccc4)nc3C)n2)cc1
7

----------
Reported inhibition of growth at 10 µg/mL is given for each of the following compounds.
# Tested on: Escherichia coli
# method: Growth inhibition of Escherichia coli at 10 ug/ml
# Type: functional
# experimental-parameters: read-out: GI
Write it as a number; the unit % goes unstated.

1. C/C(=N\NC(N)=S)c1sc(-c2ccccc2)nc1C; 66.7
2. C/C(=N\Nc1nc(-c2ccc(F)cc2)cs1)c1sc(C)nc1C; 77.3
3. C/C(=N\Nc1nc(-c2ccc(Br)cc2)cs1)c1sc(-c2ccccc2)nc1C; 94.4
4. C/C(=N\Nc1nc(-c2ccc(Cl)cc2)cs1)c1sc(-c2ccccc2)nc1C; 80.4

Kindly review the next compound as well.
Name the value of inhibition of growth at 10 µg/mL reported for C/C(=N\NC(N)=S)c1sc(C)nc1C when tested on Escherichia coli.
76.8

----------
Reported selectivity ratio is given for each of the following compounds.
# method: Selectivity index, ratio of GI50 for human MCF7 cells to MIC90 for Mycobacterium tuberculosis H37Ra ATCC 25177 dormant stage
# Assay type: toxicity, cell-based
# experimental-parameters: read-out: Selectivity Index
Number only, please.

// solved cases for selectivity ratio follow
1) C/C(=N\Nc1nc(-c2ccccc2)cs1)c1sc(-c2ccccc2)nc1C; 8
2) C/C(=N\Nc1nc(-c2ccc(Br)cc2)cs1)c1sc(C)nc1C; 2

Kindly review the next compound as well.
Return selectivity ratio for the following compound: C/C(=N\Nc1nc(-c2ccc(Cl)cc2)cs1)c1sc(-c2ccccc2)nc1C
1

----------
Reported selectivity ratio is given for each of the following compounds.
# method: Selectivity index, ratio of GI50 for human THP1 cells to MIC90 for Mycobacterium tuberculosis H37Ra ATCC 25177 active stage
# Type: toxicity, cell-based, THP-1
# experimental-parameters: read-out: Selectivity Index
Number only, please.

// solved cases for selectivity ratio follow
1. C/C(=N\Nc1nc(-c2ccc(Br)cc2)cs1)c1sc(C)nc1C; 2
2. C/C(=N\NC(N)=S)c1sc(C)nc1C; 1
3. COc1ccc(-c2csc(N/N=C(\C)c3sc(-c4ccccc4)nc3C)n2)cc1; 15
4. C/C(=N\Nc1nc(-c2ccccc2)cs1)c1sc(C)nc1C; 4
5. C/C(=N\Nc1nc(-c2ccc(C)cc2)cs1)c1sc(-c2ccccc2)nc1C; 1
6. C/C(=N\Nc1nc(-c2ccc(F)cc2)cs1)c1sc(C)nc1C; 4

Return selectivity ratio for the following compound: C/C(=N\Nc1nc(-c2ccc(C)cc2)cs1)c1sc(C)nc1C
1

Return selectivity ratio for the following compound: COc1ccc(-c2csc(N/N=C(\C)c3sc(C)nc3C)n2)cc1
1

----------
# method: Selectivity index, ratio of GI50 for human MCF7 cells to MIC90 for Mycobacterium tuberculosis H37Ra ATCC 25177 active stage
# Assay type: toxicity, cell-based
# experimental-parameters: read-out: Selectivity Index
Reported selectivity ratio is given for each of the following molecules.

// solved cases for selectivity ratio follow
1. C/C(=N\Nc1nc(-c2ccc(Cl)cc2)cs1)c1sc(-c2ccccc2)nc1C; 1
2. C/C(=N\Nc1nc(-c2ccccc2)cs1)c1sc(-c2ccccc2)nc1C; 11
3. C/C(=N\NC(N)=S)c1sc(C)nc1C; 1
4. C/C(=N\Nc1nc(-c2ccc(Cl)cc2)cs1)c1sc(C)nc1C; 3

Kindly review the next molecule as well.
Return selectivity ratio for the following molecule: C/C(=N\Nc1nc(-c2ccc(C)cc2)cs1)c1sc(-c2ccccc2)nc1C
1

----------
Reported selectivity ratio is given for each of the following molecules.
# method: Selectivity index, ratio of GI50 for human THP1 cells to MIC90 for Mycobacterium bovis BCG ATCC 35743 active stage
# Type: toxicity, cell-based, THP-1
# experimental-parameters: read-out: Selectivity Index
Number only, please.

// solved cases for selectivity ratio follow
1) C/C(=N\Nc1nc(-c2ccccc2)cs1)c1sc(-c2ccccc2)nc1C; 5
2) C/C(=N\Nc1nc(-c2ccc(Br)cc2)cs1)c1sc(C)nc1C; 9
3) C/C(=N\Nc1nc(-c2ccccc2)cs1)c1sc(C)nc1C; 2

Kindly review the next molecule as well.
Return selectivity ratio for the following molecule: COc1ccc(-c2csc(N/N=C(\C)c3sc(C)nc3C)n2)cc1
1
